src = patent US10669271B2

biological target: PD-1/PD-L1 (Homo sapiens (Human), UniProt Q9NZQ7); test: Homogeneous Time-Resolved Fluorescence (HTRF) PD-1/PD-L1 binding assay; conditions: recombinant human PD-1 and PD-L1, 25° C., pH 7.4
Sequence (Q9NZQ7 19-238): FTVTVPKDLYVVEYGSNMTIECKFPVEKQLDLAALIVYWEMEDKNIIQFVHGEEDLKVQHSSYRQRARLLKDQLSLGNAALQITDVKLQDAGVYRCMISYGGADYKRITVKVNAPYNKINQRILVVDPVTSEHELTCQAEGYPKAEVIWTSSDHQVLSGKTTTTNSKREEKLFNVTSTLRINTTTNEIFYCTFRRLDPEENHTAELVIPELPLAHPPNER
pIC50: −log10 of the molar value.
READOUT TYPE: pIC50

> print(dat)
                                    compound                              assay.target  result
 1  Cc1nc(Nc2cccc(-c3cccc(-c4nc5cc(CN6CC[C@@H](C(=O)O)C6)cc(C#N)c5o4)c3C)c2C)c2ncc(CN3CC[C@@H](O)C3)cc2n1 [Example 6]  PD-1/PD-L1 (Homo sapiens (Human), UniProt Q9NZQ7)  ≥ 8.00
 2  Cc1c(Nc2nc(C(F)F)nc3cc(CN4CC[C@@H](O)C4)cnc23)cccc1-c1cccc(-c2nc3cc(CN4CC[C@](C)(C(=O)O)C4)cc(C#N)c3o2)c1C [Example 23]  PD-1/PD-L1 (Homo sapiens (Human), UniProt Q9NZQ7)  ≥ 8.00
 3  Cc1nc(Nc2cccc(-c3cccc(-c4nc5cc(CN6CC[C@@H](C(=O)O)C6)cc(C#N)c5o4)c3C)c2C)c2ncc(CN3CC[C@@](C)(O)C3)cc2n1 [Example 7]  PD-1/PD-L1 (Homo sapiens (Human), UniProt Q9NZQ7)  ≥ 8.00
 4  Cc1nc(Nc2cccc(-c3cccc(-c4nc5cc(CN6CC[C@@H](C(=O)O)C6)cc(C#N)c5o4)c3C)c2C)c2ncc(CN3CC[C@](C)(O)C3)cc2n1 [Example 8]  PD-1/PD-L1 (Homo sapiens (Human), UniProt Q9NZQ7)  ≥ 8.00
 5  Cc1c(Nc2nc(C(F)F)nc3cc(CN4CC[C@@H](O)C4)cnc23)cccc1-c1cccc(-c2nc3cc(CN4CCC(C(=O)O)CC4)cc(C#N)c3o2)c1C [Example 16]  PD-1/PD-L1 (Homo sapiens (Human), UniProt Q9NZQ7)  ≥ 8.00
 6  Cc1c(Nc2nc(C(F)F)nc3cc(CN4CC[C@@H](O)C4)cnc23)cccc1-c1cccc(-c2nc3cc(CN4CC[C@@](C)(C(=O)O)C4)cc(C#N)c3o2)c1C [Example 18]  PD-1/PD-L1 (Homo sapiens (Human), UniProt Q9NZQ7)  ≥ 8.00
 7  Cc1nc(Nc2cccc(-c3cccc(-c4nc5cc(CN6CCC(C(=O)O)CC6)cc(C#N)c5o4)c3C)c2C)c2ncc(CN3CC[C@@](C)(O)C3)cc2n1 [Example 2]  PD-1/PD-L1 (Homo sapiens (Human), UniProt Q9NZQ7)  ≥ 8.00
 8  Cc1c(Nc2nc(CO)nc3cc(CN4CC[C@@H](O)C4)cnc23)cccc1-c1cccc(-c2nc3cc(CN4CCC(C(=O)O)CC4)cc(C#N)c3o2)c1C [Example 32]  PD-1/PD-L1 (Homo sapiens (Human), UniProt Q9NZQ7)  ≥ 8.00
 9  CNC(=O)C1CCN(Cc2cc(C#N)c3oc(-c4cccc(-c5cccc(Nc6nc(C(F)F)nc7cc(CN8CC[C@@H](O)C8)cnc67)c5C)c4C)nc3c2)CC1 [Example 26]  PD-1/PD-L1 (Homo sapiens (Human), UniProt Q9NZQ7)  ≥ 8.00
10  Cc1nc(Nc2cccc(-c3cccc(-c4nc5cc(CN6CC[C@@](C)(C(=O)O)C6)cc(C#N)c5o4)c3C)c2C)c2ncc(CN3CC[C@@H](O)C3)cc2n1 [Example 11]  PD-1/PD-L1 (Homo sapiens (Human), UniProt Q9NZQ7)  ≥ 8.00
11  Cc1c(Nc2nc(C(F)F)nc3cc(CN4CC[C@@H](O)C4)cnc23)cccc1-c1cccc(-c2nc3cc(CN4CCC(C)(C(=O)O)CC4)cc(C#N)c3o2)c1C [Example 24]  PD-1/PD-L1 (Homo sapiens (Human), UniProt Q9NZQ7)  ≥ 8.00
